# Tested on: CEM cells HIV-1 protection, formazan growth assay
# experiment-description: NCI AIDS Antiviral Assay;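 active = compounds giving half or more protection of infected cells from virus-caused growth loss, again on retest; inactive = the rest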
# Experimental: The ability of compounds to protect human CEM cells from HIV-1 infection is measured as a screen for new compounds capable of inhibiting the HIV virus. Five concentrations of drug were tested on uninfected and infected cells and cell growth was measured using a soluble formazan assay. […] Compounds that provided at least 50% protection were retested. Compounds that provided at least 50% protection on retest were listed as moderately active. […]
Labels: active, inactive

1. Nc1nc(NCCOCP(=O)(O)O)c(N)c(=O)[nH]1 | inactive
2. COc1cc2c(c([N+](=O)[O-])c1)NC(=O)CC(C)S2 (stereo not given) | active
3. O=C(O)c1c2c(nc3ccccc13)CCC2 | inactive
4. CC(C)(C)NNC(=O)/C(=C/c1ccc(Oc2ccc(Cl)c(Cl)c2)cc1)NC(=O)c1ccccc1 | inactive
5. CCOC(=O)/C(C#N)=C/c1ccnc2ccccc12 | inactive
